test: self-splicing fitness, log relative to wild type (ln ratio); higher = more splicing; Tetrahymena group I intron in knt gene, E. coli kanamycin selection, DiMSum; sequences stand for … in CUCUCU…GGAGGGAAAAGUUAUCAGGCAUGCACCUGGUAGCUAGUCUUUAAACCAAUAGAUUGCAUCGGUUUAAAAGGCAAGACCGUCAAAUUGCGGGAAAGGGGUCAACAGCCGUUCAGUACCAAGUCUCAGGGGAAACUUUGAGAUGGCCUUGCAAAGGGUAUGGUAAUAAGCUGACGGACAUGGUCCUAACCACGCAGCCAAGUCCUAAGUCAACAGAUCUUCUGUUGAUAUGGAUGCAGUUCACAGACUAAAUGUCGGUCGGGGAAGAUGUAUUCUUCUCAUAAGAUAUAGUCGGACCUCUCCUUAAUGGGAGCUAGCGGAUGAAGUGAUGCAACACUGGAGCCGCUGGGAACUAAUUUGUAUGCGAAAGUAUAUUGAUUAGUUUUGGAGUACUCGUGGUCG; conditions: 30 °C;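 further: selection with 25 µg/mL kanamycin versus none on LB agar overnight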
Could you label it criterion met if measured self-splicing fitness (ln) is -3 or higher, and criterion not met otherwise?

Worked cases, answers included:
stdin: Hi team, for UUUAAGCAAUAUUACGGCGU , is the recorded self-splicing fitness (ln) at or above -3?
stdout: criterion met

stdin: Hi team, for GACGAGCAAUAUUACGGUCG , is the recorded self-splicing fitness (ln) at or above -3?
stdout: criterion met

stdin: Hi team, for CCGUAGCAAUAUUACGUCAC , is the recorded self-splicing fitness (ln) at or above -3?
stdout: criterion met

stdin: Hi team, for GUCCAGCAAUAUUACGUCCU , is the recorded self-splicing fitness (ln) at or above -3?
stdout: criterion met

stdin: Hi team, for UUUCAGCAAUAUUACGCGCU , is the recorded self-splicing fitness (ln) at or above -3?
stdout: criterion not met

Others:
stdin: Hi team, for AAUCAGCAAUAUUACGUAAC , is the recorded self-splicing fitness (ln) at or above -3?
stdout: criterion met

stdin: Hi team, for UUACAGCAAUAUUACGAACU , is the recorded self-splicing fitness (ln) at or above -3?
stdout: criterion met

stdin: Hi team, for UCGUAGCAAUAUUACGCGAU , is the recorded self-splicing fitness (ln) at or above -3?
stdout: criterion not met

stdin: Hi team, for AAUCAGCAAUAUUACGGCAC , is the recorded self-splicing fitness (ln) at or above -3?
stdout: criterion met

stdin: Hi team, for ACCGAGCAAUAUUACGCAUA , is the recorded self-splicing fitness (ln) at or above -3?
stdout: criterion met

stdin: Hi team, for GCUCAGCAAUAUUACGUCCC , is the recorded self-splicing fitness (ln) at or above -3?
stdout: criterion met

stdin: Hi team, for GUGUAGCAAUAUUACGUUUG , is the recorded self-splicing fitness (ln) at or above -3?
stdout: criterion met
